Exercise: for every item that follows, state its recorded growth.
tested on: SK-MEL-2 melanoma; assay: NCI-60 one-dose screen, 48 h (100 = growth as untreated, 0 = no growth, -100 = all killed); conditions: 10 µM unless noted
The panel holds about 83,000 compounds, 20% with a hit somewhere; the sample as a whole holds those more often. Active and inactive are the calls of the source. How the source made its calls: active means growth percent below 10; inactive means the rest.

{"Molecule": "COc1ccc2c(c1)C/C(=C\\c1cc(-c3cc(OC)c(OC)c(OC)c3)n[nH]1)C2=O", "System tested": "SK-MEL-2 melanoma", "growth": "94.7% (inactive)"}

Would you mind giving growth for every molecule in the list below?
1. O=C1Nc2ccccc2/C1=C/c1cn(CCCn2c3ccccc3c(=O)c3ccccc32)c2ccccc12
2. Cc1ccsc1-c1ccc2c(c1)COC2(CCCN(C)C)c1ccc(F)cc1 (stereo unspecified)
3. Clc1ccc2c(NCCNc3nc(-c4ccccc4)cc(-c4ccccc4)n3)ccnc2c1
4. Cc1c(C)c2c(c(C)c1NC(=O)CCCCCCC(=O)O)CCC(C)(CCCC(C)CCCC(C)CCCC(C)C)O2 (stereo unspecified)
5. CC1c2ccccc2N(S(=O)(=O)c2ccccc2)C1C (stereo unspecified)

1. 84.4% (inactive)
2. 85.4% (inactive)
3. -10.9% (active)
4. 43.2% (inactive)
5. 76.5% (inactive)

Provide the reported growth of each entry below, same order.
1. C=C(C)[C@@H]1CC[C@]2(C)CC[C@]3(C)[C@H](CC[C@@H]4[C@@]5(C)CCCNC(C)(C)[C@@H]5CC[C@]43C)[C@@H]12
2. CN(C)c1ccc(N=C2C=CC(=O)C=C2)cc1
3. Nc1c2c(nc3ccc(Cl)cc13)CC(c1ccccc1)CC2=O (stereo unspecified)
4. c1ccc(-c2nc(Nc3ccc(-c4nc5ccccc5[nH]4)cc3)nc(N3CCOCC3)n2)cc1
5. N#CC1=C(N)Oc2ccc3ccccc3c2C1c1ccccc1 (stereo unspecified)

119% (inactive)
97.1% (inactive)
59% (inactive)
-52.7% (active)
49.7% (inactive)
